Read-out: Tissue Factor, F3 (gene 2152)
Experiment: BSK_LPS_TissueFactor: BioMAP Diversity Plus: LPS Assay for Tissue Factor Biomarker Activity (AID 2283084)
Settings: primary human HUVEC with PBMC; actives raise or lower the signal
Experimental: BSK_LPS is a cell-based, multiplexed-readout assay that uses umbilical vein endothelium and peripheral blood mononuclear cells, a human vascular primary cell co-culture, with measurements taken at 24 hours after chemical dosing in a 96-well plate.BSK_LPS_TissueFactor is an assay component measured in the BSK_LPS assay. […] This assay endpoint, BSK_LPS_TissueFactor, was analyzed with bidirectional fitting relative to DMSO as the negative control and baseline of activity. […]
Active and inactive are the calls of the source. The calls were made as follows: active = hit-call score of the fitted dose curve at least 0.9, where 1 is the maximum; inactive = score below 0.9.
Outcome codes: 1.0 = active, 0.0 = inactive

INSERT INTO results (smiles_string, classification) VALUES
  ('Cc1cc(N=Nc2ccccc2C)ccc1N', 0.0),
  ('CNC(=O)Oc1cccc2c1OC(C)(C)C2', 0.0),
  ('ClC1=C(Cl)[C@]2(Cl)[C@H]3[C@H]([C@@H]4C=C[C@H]3C4)[C@@]1(Cl)C2(Cl)Cl', 1.0),
  ('CCC12COCN1COC2', 0.0),
  ('Clc1ccc(C(c2ccc(Cl)cc2)C(Cl)Cl)cc1', 1.0),
  ('N#CC(Br)(Br)C(N)=O', 0.0),
  ('Cc1ccc(N)c(N)c1', 0.0),
  ('Nc1ccc(N=Nc2ccccc2)cc1', 0.0),
  ('Clc1ccccc1Cl', 0.0),
  ('[Cl-].[Cl-].[Hg+2]', 1.0),
  ('CCCCCCCCOC(=O)c1ccc(C(=O)OCCCCCCCC)c(C(=O)OCCCCCCCC)c1', 0.0),
  ('C[C@]12C=CC3=C4CCC(=O)C=C4CC[C@H]3[C@@H]1CC[C@@H]2O', 0.0),
  ('c1ccc2c(c1)oc1ccccc12', 0.0),
  ('[As]#[In]', 0.0),
  ('Clc1ccc(C(c2ccc(Cl)cc2)C(Cl)(Cl)Cl)cc1', 1.0),
  ('CC(C)N(Cc1ccccc1)C(=O)C(C)(C)C', 0.0),
  ('CCN(CC)CCO', 0.0),
  ('CN(C)C(=O)Nc1ccc(Cl)cc1', 0.0),
  ('C1=Cc2cccc3cccc1c23', 0.0),
  ('c1ccc2c(c1)-c1cccc3cccc-2c13', 0.0),
  ('OCCOCCO', 0.0),
  ('O=P(OCCCl)(OCCCl)OCCCl', 0.0),
  ('COC(=O)c1ccccc1N', 0.0),
  ('Nc1cc(Cl)cc(C(=O)O)c1Cl', 0.0);

---

Experiment: ATG_MRE_CIS: Attagene CIS-FACTORIAL HepG2 Assay for human Metal Responsive Element (MRE) (AID 2282954)
Details: HepG2 MRE cis-reporter transcription, Attagene multiplex; actives raise or lower the signal
Procedure: ATG_CIS is a cell-based, multiplexed-readout assay that uses HepG2, a human liver cell line, with measurements taken at 24 hours after chemical dosing in a 24-well plate.ATG_MRE_CIS is one of 52 assay component(s) measured or calculated from the ATG_CIS assay. […] This assay endpoint, ATG_MRE_CIS, was analyzed with bidirectional fitting relative to DMSO as the negative control and baseline of activity. […]
The source made the active and inactive calls. The calls were made as follows: active = hit-call score of the fitted dose curve at least 0.9, where 1 is the maximum; inactive = score below 0.9.
Outcomes: y for active, n for inactive

INSERT INTO results (compound, classification) VALUES
  ('COP(=S)(OC)SCN1C(=O)c2ccccc2C1=O', 'n'),
  ('CC(C)(O)c1cnn2c(-c3ccc(F)c(-c4c(F)cccc4C#N)c3)cnc2n1', 'y'),
  ('CCOC(=O)[C@]1(c2ccccc2)Oc2ccccc2[C@@H]1N', 'y'),
  ('CCC(C)c1ccc(O)cc1 (stereo not given)', 'y'),
  ('Clc1ccc(C(c2ccc(Cl)cc2)C(Cl)(Cl)Cl)cc1', 'y'),
  ('Nc1cc(Cl)cc(C(=O)O)c1Cl', 'n'),
  ('CN(C)C(=O)Nc1ccc(Cl)cc1', 'n'),
  ('CCOc1cccc(C2(N3CCN(c4ccccc4)CC3)CCC(C)CC2)c1 (stereo not given)', 'n'),
  ('CC(C)(C)OOC(C)(C)CCC(C)(C)OOC(C)(C)C', 'n'),
  ('O=C(O)C1C2CCC(O2)C1C(=O)O (stereo not given)', 'y'),
  ('C[N+](C)(C)CC1CO1 (stereo not given)', 'n'),
  ('c1ccc2c(c1)oc1ccccc12', 'n'),
  ('Cc1cc(N=Nc2ccccc2C)ccc1N', 'y'),
  ('N#CC(Br)Br', 'n'),
  ('O=C(Oc1ccc(Br)cc1)N1CCN2CCC1CC2', 'n');

---

Read-out: Vascular cell adhesion molecule 1 (VCAM1), VCAM1 (gene 7412)
Assay: BSK_hDFCGF_VCAM1: BioMAP Diversity Plus: hDFCGF Assay for Vascular cell adhesion molecule 1 (VCAM1) Biomarker Activity (AID 2283065)
Details: primary human foreskin fibroblasts; actives raise or lower the signal
Method: BSK_hDFCGF is a cell-based, multiplexed-readout assay that uses foreskin fibroblast, a human skin primary cell, with measurements taken at 24 hours after chemical dosing in a 96-well plate.BSK_hDFCGF_VCAM1 is an assay component measured in the BSK_hDFCGF assay. It measures VCAM-1 antibody related to regulation of gene expression using ELISA technology.Data from the assay component BSK_hDFCGF_VCAM1 was analyzed into 1 assay endpoint. […]
Calls of active or inactive are those of the source. The calls were made as follows: active = hit-call score of the fitted dose curve at least 0.9, where 1 is the maximum; inactive = score below 0.9.
Classes used: 1 = active, 0 = inactive

INSERT INTO results (smiles_string, classification) VALUES
  ('Cn1cc(-c2ccccc2)c(=O)c(-c2cccc(C(F)(F)F)c2)c1', 0),
  ('Clc1ccc(C(c2ccc(Cl)cc2)C(Cl)Cl)cc1', 1),
  ('CN(C)C(=O)Nc1ccc(Cl)cc1', 0),
  ('CCC12COCN1COC2', 0),
  ('CN(C)c1ccc(C(=O)c2ccc(N(C)C)cc2)cc1', 0),
  ('Nc1ccc(N=Nc2ccccc2)cc1', 1),
  ('Clc1ccccc1Cl', 0),
  ('CC(C)N(Cc1ccccc1)C(=O)C(C)(C)C', 0);

---

Read-out: ABC Transporter (ABCB1), ABCB1 (gene 5243)
Assay: LTEA_HepaRG_ABCB1: Life Technologies and Expression Analysis (LTEA) Assay for ABC Transporter (ABCB1) using HepaRG (AID 2283460)
Conditions: mRNA level, 48 h; actives raise or lower the signal
The source made the active and inactive calls. How the source made its calls: active means hit-call score of the fitted dose curve at least 0.9, where 1 is the maximum; inactive means score below 0.9.
Outcomes: 1 for active, 0 for inactive

INSERT INTO measurements (smiles_string, classification) VALUES
  ('Clc1ccc(C(c2ccc(Cl)cc2)C(Cl)Cl)cc1', 1),
  ('c1ccc(NNc2ccccc2)cc1', 0),
  ('Cc1cc(N=Nc2ccccc2C)ccc1N', 1);

---

Read-out: Cytochrome P450 2C19 (Homo sapiens) (UniProt P33261)
Sequence (P33261 whole entry, looked up): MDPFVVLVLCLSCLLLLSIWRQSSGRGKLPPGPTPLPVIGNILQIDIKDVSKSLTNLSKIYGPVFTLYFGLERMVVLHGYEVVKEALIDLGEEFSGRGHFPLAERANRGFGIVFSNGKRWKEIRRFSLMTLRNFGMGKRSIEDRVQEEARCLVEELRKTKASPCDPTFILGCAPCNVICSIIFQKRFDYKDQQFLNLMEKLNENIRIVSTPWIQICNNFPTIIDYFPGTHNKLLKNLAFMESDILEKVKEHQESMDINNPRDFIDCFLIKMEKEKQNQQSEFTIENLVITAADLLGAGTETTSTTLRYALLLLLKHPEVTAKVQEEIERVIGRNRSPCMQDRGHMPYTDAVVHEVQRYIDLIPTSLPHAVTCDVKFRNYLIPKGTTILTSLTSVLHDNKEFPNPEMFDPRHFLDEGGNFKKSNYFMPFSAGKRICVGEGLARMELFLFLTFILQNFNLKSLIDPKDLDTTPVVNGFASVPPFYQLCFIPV
Test: LTEA_HepaRG_CYP2C19: Life Technologies and Expression Analysis (LTEA) Assay for CYP2C19 using HepaRG (AID 2283482)
Conditions: mRNA level, 48 h; actives raise or lower the signal
Active and inactive are the calls of the source. How the source made its calls: active means hit-call score of the fitted dose curve at least 0.9, where 1 is the maximum; inactive means score below 0.9.
Outcomes: active, inactive

INSERT INTO measurements (compound, classification) VALUES
  ('Cc1ccc(N=C=O)cc1N=C=O', 'inactive'),
  ('CC(C)(O)c1cnn2c(-c3ccc(F)c(-c4c(F)cccc4C#N)c3)cnc2n1', 'active'),
  ('CCCCCOC(=O)c1ccccc1C(=O)OCCCCC', 'inactive'),
  ('CN(C)C(=O)Nc1ccc(Cl)cc1', 'inactive'),
  ('C[N+](C)(C)CC1CO1 (stereo not given)', 'inactive'),
  ('O=C(Oc1ccc(Br)cc1)N1CCN2CCC1CC2', 'active'),
  ('CS(=O)(=O)NC(=O)c1cc(Oc2ccc(C(F)(F)F)cc2Cl)ccc1[N+](=O)[O-]', 'active'),
  ('Nc1cc(Cl)cc(C(=O)O)c1Cl', 'inactive'),
  ('Cc1ccc(N)c(N)c1', 'inactive'),
  ('O=[N+]([O-])C(Br)(CO)CO', 'inactive'),
  ('Nc1ccc([N+](=O)[O-])cc1', 'inactive'),
  ('[O-][Cl+]O', 'inactive'),
  ('ClC1=C(Cl)[C@]2(Cl)[C@H]3[C@H]([C@@H]4C=C[C@H]3C4)[C@@]1(Cl)C2(Cl)Cl', 'active'),
  ('CCCCCCCCOC(=O)c1ccc(C(=O)OCCCCCCCC)c(C(=O)OCCCCCCCC)c1', 'inactive'),
  ('Clc1ccccc1Cl', 'inactive');

---

Assay: APR_HepG2_p53Act_72hr: Apredica 72-hour HepG2 Assay for p53 Activation (AID 2282923);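 also: average cellular p53 protein immunofluorescence intensity in HepG2 cells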
Conditions: high-content imaging, actives raise or lower the signal
Active and inactive are the calls of the source. How the source made its calls: active means hit-call score of the fitted dose curve at least 0.9, where 1 is the maximum; inactive means score below 0.9.
Outcomes: active, inactive

INSERT INTO measurements (compound, classification) VALUES
  ('CCCCCCCCCCCCCN1CC(C)OC(C)C1 (centres undefined)', 'inactive'),
  ('c1ccc2c(c1)-c1cccc3cccc-2c13', 'inactive'),
  ('CS(=O)(=O)NC(=O)c1cc(Oc2ccc(C(F)(F)F)cc2Cl)ccc1[N+](=O)[O-]', 'inactive'),
  ('CCC12COCN1COC2', 'active');
